test system: TNFα; assay: cells; type: cell-based, human; conditions: Homo sapiens, Monocyte, LPS-stimulated human monocytes, TNFα by TR-FRET; read-out: EC50 TNF
# key: entry, value: log10(EC50)
Please keep in mind that the values are log10 of EC50 expressed in nM.

Here's what some known entries look like.
CC(C)(O)[C@H](F)CNC(=O)c1cnc(-c2ccc3cc(C#N)cnn23)cc1NC1CC2(CCNC2)C1 (stereo partly shown) :: 3.09
CC(C)(O)[C@H](F)CNC(=O)c1cnc(-c2ccc3cc(C#N)cnn23)cc1Nc1ccc2ncccc2c1 :: 1.77
COC(=O)NC[C@H]1C[C@H](Nc2cc(-c3ccc4cc(C#N)cnn34)ncc2C(=O)NCCC(C)(C)NC(=O)OC(C)(C)C)C1 :: 1.61
CCOC(=O)CCNC(=O)c1cnc(-c2ccc3cc(C#N)cnn23)cc1NC12CCC(O)(CC1)CC2 :: 1.76
N#Cc1cnn2c(-c3cc(NC45CCC(O)(CC4)CC5)c(C(=O)NCC(=O)N4CC[C@@H](O)C4)cn3)ccc2c1 :: 2.38

// moving on: another record for log10(EC50)
Exam item: Quick check: log10(EC50) of CCOc1cnc(Nc2cc(-c3ccc4cc(C#N)cnn34)ncc2C(=O)NC[C@@H](F)C(C)(C)O)cn1 ?
Marked response: 1.46

###

target: IRAK4 enzyme (Homo sapiens (Human), UniProt Q9NWZ3); assay: biochemical; format: biochemical; conditions: IRAK4 enzyme, TR-FRET, 500 μM ATP
Sequence (Q9NWZ3 whole entry): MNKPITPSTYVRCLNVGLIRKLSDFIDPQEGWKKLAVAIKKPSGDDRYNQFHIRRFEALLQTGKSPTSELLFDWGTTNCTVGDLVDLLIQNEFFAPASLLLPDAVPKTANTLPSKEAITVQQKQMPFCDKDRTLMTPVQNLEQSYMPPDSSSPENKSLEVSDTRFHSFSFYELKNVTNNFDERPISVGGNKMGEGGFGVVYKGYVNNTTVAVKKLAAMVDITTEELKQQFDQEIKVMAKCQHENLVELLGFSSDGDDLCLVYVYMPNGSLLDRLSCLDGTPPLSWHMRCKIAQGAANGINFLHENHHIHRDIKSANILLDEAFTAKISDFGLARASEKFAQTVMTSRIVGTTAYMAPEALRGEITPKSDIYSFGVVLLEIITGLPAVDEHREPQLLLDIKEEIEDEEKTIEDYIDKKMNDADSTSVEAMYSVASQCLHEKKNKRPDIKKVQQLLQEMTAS
# key: entry, value: IC50

[2H]C([2H])([2H])OC(=O)NC[C@H]1C[C@H](Nc2cc(-c3ccc4cc(C#N)cnn34)ncc2C(=O)NC[C@@H](F)C(C)(C)O)C1 :: < 1 nM
CC(C)(O)[C@H](F)CNC(=O)c1cnc(-c2ccc3cc(C#N)cnn23)cc1N[C@H]1CC[C@H](NC(=O)OCC2CC2)CC1 :: 1 nM
N#CCNC(=O)c1cnc(-c2ccc3cc(C#N)cnn23)cc1NC12CCC(O)(CC1)CC2 :: < 1 nM
CC(C)(O)[C@H](F)CNC(=O)c1cnc(-c2ccc3cc(C#N)cnn23)cc1N[C@H]1CC[C@H](NC(=O)C(F)(F)F)CC1 :: 1 nM
COC(=O)CNC(=O)c1cnc(-c2ccc3cc(C#N)cnn23)cc1NC12CCC(O)(CC1)CC2 :: < 1 nM
N#Cc1cnn2c(-c3cc(NC45CCC(O)(CC4)CC5)c(C(=O)NCC(=O)N4CCC5(COC5)C4)cn3)ccc2c1 :: < 1 nM

// moving on: another record for IC50
Exam item: Quick check: IC50 of CC(C)Nc1cc(-c2ccc3cc(C#N)cnn23)ncc1C(=O)NCCC(C)(C)O ?
Marked response: < 1 nM

###

target: IRAK4 enzyme (Homo sapiens (Human)); assay: biochemical; type: biochemical; settings: IRAK4 enzyme, TR-FRET (HTRF), 500 μM ATP
# key: entry, value: IC50

CNC(=O)c1ccc(Nc2cc(-c3ccc4cc(C#N)cnn34)ncc2C(=O)NCC#N)cc1 [Example 451] :: < 1 nM

Exam item: Quick check: IC50 of CC(C)(O)[C@H](F)CNC(=O)c1cnc(-c2ccc3cc(C#N)cnn23)cc1Nc1cnc(N2CCOCC2)nc1 [Example 671] ?
Marked response: < 1 nM

Exam item: Quick check: IC50 of CNC(=O)c1cnc(-c2ccc3cc(C#N)cnn23)cc1N[C@H]1C[C@@H](C(=O)NC)C1 [Example 471] ?
Marked response: 9 nM

Exam item: Quick check: IC50 of CC(C)(O)[C@H](F)CNC(=O)c1cnc(-c2ccc3cc(C#N)cnn23)cc1N[C@H]1CC[C@@H](O)C1 [Example 520] ?
Marked response: < 1 nM

Exam item: Quick check: IC50 of CC(C)(O)[C@H](F)CNC(=O)c1cnc(-c2ccc3cc(C#N)cnn23)cc1N[C@H]1C[C@H](CN2CCOC2=O)C1 [Example 714] ?
Marked response: < 1 nM

Exam item: Quick check: IC50 of COC(=O)NCC1(F)CC(Nc2cc(-c3ccc4cc(C#N)cnn34)ncc2C(=O)NC[C@@H](F)C(C)(C)O)C1 (stereo partly shown) [Example 758] ?
Marked response: 1 nM

Exam item: Quick check: IC50 of COC(=O)NC(C)(C)CCNc1cc(-c2ccc3cc(C#N)cnn23)ncc1C(=O)NC[C@@H](F)C(C)(C)O [Example 727] ?
Marked response: 3 nM

Exam item: Quick check: IC50 of CC(C)(O)[C@H](F)CNC(=O)c1cnc(-c2ccc3cc(C#N)cnn23)cc1Nc1cncc(F)c1 [Example 600] ?
Marked response: < 1 nM

Exam item: Quick check: IC50 of Cc1ncoc1[C@H]1CC[C@H](Nc2cc(-c3ccc4cc(C#N)cnn34)ncc2C(=O)NC[C@@H](F)C(C)(C)O)CC1 [Example 631] ?
Marked response: 2 nM

Exam item: Quick check: IC50 of CC(=O)NC[C@H]1C[C@H](Nc2cc(-c3ccc4cc(C#N)cnn34)ncc2C(=O)NC[C@@H](F)C(C)(C)O)C1 [Example 544] ?
Marked response: 1 nM

Exam item: Quick check: IC50 of Cn1ccc(Nc2cc(-c3ccc4cc(C#N)cnn34)ncc2C(=O)NC[C@@H](F)C(C)(C)O)cc1=O [Example 442] ?
Marked response: 1 nM

Exam item: Quick check: IC50 of COC(=O)NC12CC(Nc3cc(-c4ccc5cc(C#N)cnn45)ncc3C(=O)NC[C@@H](F)C(C)(C)O)(C1)C2 [Example 507] ?
Marked response: < 1 nM

Exam item: Quick check: IC50 of COC(=O)NC[C@H]1C[C@H](Nc2cc(-c3ccc4cc(C#N)cnn34)ncc2C(=O)NC[C@@H](F)C(C)(C)O)C1 [Example 545] ?
Marked response: < 1 nM

Exam item: Quick check: IC50 of COCc1nnc(NC[C@H]2C[C@H](Nc3cc(-c4ccc5cc(C#N)cnn45)ncc3C(=O)NC[C@@H](F)C(C)(C)O)C2)o1 [Example 697] ?
Marked response: 1 nM

Exam item: Quick check: IC50 of CC(C)(C#N)c1ccc(Nc2cc(-c3ccc4cc(C#N)cnn34)ncc2C(=O)NC[C@@H](F)C(C)(C)O)cn1 [Example 683] ?
Marked response: 1 nM

Every entry's value here was drawn from patent US10336762B2.
